# TARGET SYSTEM: Proteasome subunit beta (Trypanosoma cruzi) (UniProt O96673)
# Sequence (O96673 as listed by the source): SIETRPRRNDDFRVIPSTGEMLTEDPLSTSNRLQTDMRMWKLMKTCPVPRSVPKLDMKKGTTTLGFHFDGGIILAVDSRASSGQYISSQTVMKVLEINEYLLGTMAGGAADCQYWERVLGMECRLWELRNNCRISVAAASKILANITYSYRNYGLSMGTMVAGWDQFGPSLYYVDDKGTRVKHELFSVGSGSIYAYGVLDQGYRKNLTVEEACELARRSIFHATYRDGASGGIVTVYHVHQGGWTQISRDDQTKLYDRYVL
# ASSAY INFO: Trypanosoma cruzi proteasome chymotrypsin-like activity (TcProtChymo) assay.
# Format: functional
# Set-up: scale not given: in the data most compounds retested in dose-response had high values
# ASSAY SETUP: 9.37 µM
Answer each item with its documented Percent Effect.

Name the recorded Percent Effect of the item CN1CCCC(Cc2ccnc3ccncc23)CC1 (stereo not drawn) in your answer.
-0.312%

Check the records and state Percent Effect for COc1cccc(C)c1C(=O)N1C[C@@H](CN(C)C)[C@@H](CO)C1
9.15%

Tell me Percent Effect reported for Cn1cc(CNC2CCCN(Cc3noc(C4CC4)n3)C2)cn1 (stereo not drawn)
18.7%

State its Percent Effect: CC(C)n1cc(S(=O)(=O)N2CCCCC2)cn1
15.7%

Identify measured Percent Effect associated with O=C(c1ccccn1)N1CCc2nc(-c3cnccn3)nc(O)c2C1
11.7%

For the compound CC(=O)Nc1ccc(S(=O)(=O)NC(=O)CCC2CCCO2)cc1 (stereo not drawn) , report Percent Effect.
6.31%

Tell me its Percent Effect given CC(O)CN1CCN(C(=O)c2ccc(Cn3cccn3)cc2)CC1 (stereo not drawn) as the entry.
6.67%

Note down Percent Effect recorded for CC(C)C(C(=O)N1CCCN(Cc2nccn2C)CC1)N1CCCC1 (stereo not drawn)
10.6%

Please look at this compound and report its Percent Effect: Cc1nn(C)c(N2CCOCC2)c1CNCc1nccs1
9.86%

Consider the compound N#CCSCCCN1CCCN(C(=O)c2ccccc2)CC1 and give its recorded Percent Effect.
1.63%

For FC(F)(F)c1cc(N2CCc3ncnc(NC4CC4)c3CC2)ncn1 , write its Percent Effect.
14.4%

Recall and state the measured Percent Effect for Cc1cc(C)cc(C2(C(=O)NC(C)Cn3ccnc3)CC2)c1 (stereo not drawn) .
14.3%

Identify the reported Percent Effect for the following entry. COc1cc(C(=O)N2CCC(c3n[nH]c(C4CC4)n3)CC2)ccc1C
-0.686%

Read off the recorded Percent Effect for CC(C)c1csc(C2CCCN(C(=O)c3ccc(=O)n(C)n3)C2)n1 (stereo not drawn)
7.3%

Look up and state reported Percent Effect for CC(C)c1nnc2n1CCN(C(=O)CN1CCc3sccc3C1)C2
-2.34%

Return value of Percent Effect for input Cc1cccc(CCC(=O)N2CCCC(c3cc(C(N)=O)[nH]n3)C2)c1 (stereo not drawn) , no commentary.
0.36%

Output Percent Effect of CC(C)Cc1noc(CN2CCN(CCOc3ccc(Cl)cc3)CC2)n1
14.7%

Supply measured Percent Effect of COc1ccccc1OCc1cc(C(=O)N2CC=CC2C(C)C)n[nH]1 (stereo not drawn) in your reply.
11.9%

* * *

Exercise: state measured Percent Effect for each of the molecules provided.
# TARGET SYSTEM: Tyrosyl-tRNA synthetase, putative (Trypanosoma cruzi (strain CL Brener))
# Sequence (whole entry): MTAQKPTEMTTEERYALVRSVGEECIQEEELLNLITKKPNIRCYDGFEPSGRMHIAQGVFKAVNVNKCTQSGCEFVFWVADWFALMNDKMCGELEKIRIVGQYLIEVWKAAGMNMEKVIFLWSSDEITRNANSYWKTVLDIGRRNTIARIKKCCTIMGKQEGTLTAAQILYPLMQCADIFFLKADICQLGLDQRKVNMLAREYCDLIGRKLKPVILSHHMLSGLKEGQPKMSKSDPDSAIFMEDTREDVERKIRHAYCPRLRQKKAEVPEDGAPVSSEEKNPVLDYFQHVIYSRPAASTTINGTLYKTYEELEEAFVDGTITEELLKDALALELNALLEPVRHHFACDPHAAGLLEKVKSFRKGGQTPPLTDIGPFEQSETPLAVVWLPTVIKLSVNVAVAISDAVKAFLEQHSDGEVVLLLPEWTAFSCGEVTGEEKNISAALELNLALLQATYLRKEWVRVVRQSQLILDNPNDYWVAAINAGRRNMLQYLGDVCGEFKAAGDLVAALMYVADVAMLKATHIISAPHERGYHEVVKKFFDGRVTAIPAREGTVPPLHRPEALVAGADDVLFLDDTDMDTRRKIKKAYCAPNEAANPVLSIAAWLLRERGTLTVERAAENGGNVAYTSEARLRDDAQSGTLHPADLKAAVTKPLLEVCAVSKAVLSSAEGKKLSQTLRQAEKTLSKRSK
# ASSAY INFO: Trypanosoma cruzi tyrosyl tRNA synthetase (TcYRS) _High Tyrosine SOP
# Format: functional
# Set-up: scale not given: in the data most compounds retested in dose-response had high values
# ASSAY SETUP: 30 µM
Numbers only here, please. The scale is %.

Report Percent Effect under test system Tyrosyl-tRNA synthetase, putative (Trypanosoma cruzi (strain CL Brener)) for COc1cccc(C(=O)N2CCc3ncnc(C)c3CC2)c1 .
6.25

Give the observed Percent Effect of CC(C)CN1C(=O)c2ccc(C(=O)NCCc3c[nH]cn3)cc2C1=O for Tyrosyl-tRNA synthetase, putative (Trypanosoma cruzi (strain CL Brener)).
5.29

Find Percent Effect for CCn1ccnc1CN1CCN(CC(=O)NC(=O)NC2CC2)CC1 on Tyrosyl-tRNA synthetase, putative (Trypanosoma cruzi (strain CL Brener)) and write it down.
8.33

Give reported Percent Effect for CCCS(=O)(=O)N1CCO[C@H]2[C@H](OCc3ccccn3)CC[C@@H]21 (Tyrosyl-tRNA synthetase, putative (Trypanosoma cruzi (strain CL Brener)))
10.9

Give Tyrosyl-tRNA synthetase, putative (Trypanosoma cruzi (strain CL Brener)) Percent Effect for the following molecule: COC(C(=O)N1CCCN(Cc2cscn2)CC1)c1ccccc1 (stereo not given)
5.39

Lab note: record Percent Effect of COCCCC1(CO)CCCN(CCS(C)(=O)=O)C1 (stereo not given) tested on Tyrosyl-tRNA synthetase, putative (Trypanosoma cruzi (strain CL Brener)).
2.15

Enter recorded Percent Effect with Tyrosyl-tRNA synthetase, putative (Trypanosoma cruzi (strain CL Brener)) for Cc1ccc(C(=O)N2CCc3c(CNS(C)(=O)=O)cncc3C2)o1 here.
3.12

Answer with Percent Effect of CN1CCCC[C@@H]2[C@H]1[C@@H](c1ccccc1)CCN2C(=O)c1ccccc1 measured for Tyrosyl-tRNA synthetase, putative (Trypanosoma cruzi (strain CL Brener)).
7.53

For Tyrosyl-tRNA synthetase, putative (Trypanosoma cruzi (strain CL Brener)), give the measured Percent Effect of the entry COc1cc(CNC(=O)CNc2cc(Cl)ccc2OC)ccn1
-4.43

// output Percent Effect; input COC(=O)c1cccc(NS(=O)(=O)c2cnc(NC(C)=O)s2)c1 ; system Tyrosyl-tRNA synthetase, putative (Trypanosoma cruzi (strain CL Brener))
3.17

Provide the reported Percent Effect (system: Tyrosyl-tRNA synthetase, putative (Trypanosoma cruzi (strain CL Brener))) for Cc1cc(C(=O)N2CC[C@@H]3CN(c4ncccn4)CCO[C@@H]3C2)c(C)o1
6.49

Under Tyrosyl-tRNA synthetase, putative (Trypanosoma cruzi (strain CL Brener)): report Percent Effect of CC(C)(C)CC(=O)N1CC[C@@H]2[C@H](CC1)N(S(C)(=O)=O)CCS2(=O)=O .
8.91

Return reported Percent Effect for target or system Tyrosyl-tRNA synthetase, putative (Trypanosoma cruzi (strain CL Brener)), item O=C(c1cnccn1)N1CCN(Cc2ccncc2)c2ncccc2C1 .
2.08

Find Percent Effect for CN1CCN(C(=O)[C@H]2C[C@@H]3CCN(c4ncc(F)cn4)C[C@@H]3O2)CC1 on Tyrosyl-tRNA synthetase, putative (Trypanosoma cruzi (strain CL Brener)) and write it down.
0

Jot down Percent Effect (Tyrosyl-tRNA synthetase, putative (Trypanosoma cruzi (strain CL Brener))) of CCN(CCC(F)(F)F)C(=O)Nc1cccc(N2CCOCC2)c1 .
2.65

Param request: Percent Effect | system Tyrosyl-tRNA synthetase, putative (Trypanosoma cruzi (strain CL Brener)) | item CC(=O)c1cccc(NC(=O)Cn2cc(I)cn2)c1
-2.13

# assay system Tyrosyl-tRNA synthetase, putative (Trypanosoma cruzi (strain CL Brener)): give Percent Effect of Cc1ccc(C(=O)N2CCN(C(=O)NC(C)Cn3ccnc3)CC2)o1 (stereo not given)
3.43

Would you please give the reported Percent Effect of CC(=O)N1CCCCC1c1cc(CO)[nH]n1 (stereo not given) with Tyrosyl-tRNA synthetase, putative (Trypanosoma cruzi (strain CL Brener))?
3.23

Supply Percent Effect measured with Tyrosyl-tRNA synthetase, putative (Trypanosoma cruzi (strain CL Brener)) for CCCOc1cc(CNC(=O)Nc2cccnc2N2CCCC2)ccn1 .
-0.493

GET Percent Effect where system = Tyrosyl-tRNA synthetase, putative (Trypanosoma cruzi (strain CL Brener)) and item = CCNS(=O)(=O)c1ccc(C)c(C(=O)N(C)Cc2ccco2)c1
-27.4

// output Percent Effect; input CN(C)S(=O)(=O)N1C[C@H](Oc2cccnc2)[C@H]2OCCC[C@H]21 ; system Tyrosyl-tRNA synthetase, putative (Trypanosoma cruzi (strain CL Brener))
0

State recorded Percent Effect with Tyrosyl-tRNA synthetase, putative (Trypanosoma cruzi (strain CL Brener)), entry O=C(C1CCC1)N1CCN(c2snc3ccccc23)CC1 , no comment.
-4.17

# return Percent Effect for Cc1ccc(-c2cc(CNC(=O)N3CCOC(C)C3)on2)cc1 (stereo not given) , test system: Tyrosyl-tRNA synthetase, putative (Trypanosoma cruzi (strain CL Brener))
6.93

State recorded Percent Effect with Tyrosyl-tRNA synthetase, putative (Trypanosoma cruzi (strain CL Brener)), entry COc1cccc2c1ccn2CCC(=O)N1CCCC(C(=O)O)C1 (stereo not given) , no comment.
-3.19

Provide Percent Effect, system Tyrosyl-tRNA synthetase, putative (Trypanosoma cruzi (strain CL Brener)), entry COCCOc1ccc(NC(=O)C2CCCN(C(N)=O)C2)cn1 (stereo not given)
-0.493

Recall the reported Percent Effect of COCc1nc(C(=O)N2CCCC2c2noc(C(C)C)n2)cs1 (stereo not given) when tested on Tyrosyl-tRNA synthetase, putative (Trypanosoma cruzi (strain CL Brener)).
3.12

Please respond with reported Percent Effect (system Tyrosyl-tRNA synthetase, putative (Trypanosoma cruzi (strain CL Brener))) for Cn1c(Cn2cccn2)nnc1C1CCN(Cc2cccnc2N)CC1 .
-1.05

Fill in Percent Effect for CS(=O)(=O)c1ccc(CNC2CCCN(c3cccnn3)C2)cc1 (stereo not given) tested with Tyrosyl-tRNA synthetase, putative (Trypanosoma cruzi (strain CL Brener)).
8.57

Give Tyrosyl-tRNA synthetase, putative (Trypanosoma cruzi (strain CL Brener)) Percent Effect for the following molecule: Cc1cc(C2CCCN(C(=O)CN3CCN(C)CC3)C2)n[nH]1 (stereo not given)
6.93

Retrieve Percent Effect on Tyrosyl-tRNA synthetase, putative (Trypanosoma cruzi (strain CL Brener)); query CN(C)CC1CSCCCN1C(=O)Nc1ccc(C(C)(C)C)cc1 (stereo not given)
4.23

Retrieve Percent Effect on Tyrosyl-tRNA synthetase, putative (Trypanosoma cruzi (strain CL Brener)); query CNC(=O)c1cc2c(nc1NC(C)C)CCN(C(=O)NC(C)C)CC2
6.45

Please look at Cc1nn2c(N3CCC(O)C3)cc(-c3ccccc3)nc2c1C (stereo not given) and tell me its recorded Percent Effect on Tyrosyl-tRNA synthetase, putative (Trypanosoma cruzi (strain CL Brener)).
7.29

Enter recorded Percent Effect with Tyrosyl-tRNA synthetase, putative (Trypanosoma cruzi (strain CL Brener)) for O=C(CCc1nc2cccnc2[nH]1)NCc1ccc2c(c1)OCO2 here.
9.52

Give Percent Effect only, for O=S(=O)(CCN1CCOC(Cn2cccn2)C1)C(F)(F)F (stereo not given) , using Tyrosyl-tRNA synthetase, putative (Trypanosoma cruzi (strain CL Brener)) data.
8.33

State recorded Percent Effect with Tyrosyl-tRNA synthetase, putative (Trypanosoma cruzi (strain CL Brener)), entry CCN1CCN(C(=O)CCc2c(C)noc2Cl)CC1 , no comment.
3.45
